Tested on: Malme-3M
Assay: NCI tumour cell line growth inhibition, 48 h
The source made the active and inactive calls. No stated cut-off is given here; in the data, active = GI50 up to about 1.1 µM and inactive = higher.
GI50 for assorted compounds
quantity_name: GI50

COc1cccc2c1C(=O)OC2c1cccc2ccccc12 (centres undefined) ... > 100 µM (inactive)
Cc1ccc2c(c1)c1ccc3c(c1n2C)C(=O)C=CC3=O ... 2 µM (inactive)
O=C(Nc1c(-c2nc3ccccc3[nH]2)sc(=S)n1-c1ccccc1)c1ccccc1 ... > 100 µM (inactive)
O=C(O)c1nn(-c2ccccc2-c2nnc(O)nc2O)c(=O)[nH]c1=O ... > 100 µM (inactive)
Cc1[nH]c(=O)[nH]c(=O)c1C(=O)N(CCO)Cc1ccccc1 ... > 100 µM (inactive)
O=C1C(Cl)C(c2cccc(Cl)c2)N1c1ccc(-n2c(S)nc3ccccc3c2=O)cc1 (centres undefined) ... 40.2 µM (inactive)
CC1=CCC2(C#N)CCC1C2=O (centres undefined) ... > 100 µM (inactive)
CN(C)c1nc(NC23CC4CC(CC(C4)C2)C3)nc(N(C)C)n1 ... 33.1 µM (inactive)
COc1cc(-c2c3c(cc4c2OCO4)[C@@H](Nc2ccc(-c4ccc(-c5ccc(N[C@@H]6c7cc8c(cc7C(c7cc(OC)c(O)c(OC)c7)[C@H]7C(=O)OC[C@H]67)OCO8)cc5)cc4)cc2)[C@H]2COC(=O)[C@@H]2C3)cc(OC)c1O (some centres undefined) ... 1.87 µM (inactive)

====

System: COLO 205
Assay: NCI tumour cell line growth inhibition, 48 h
Active and inactive are the calls of the source. No stated cut-off is given here; in the data, active = GI50 up to about 1.1 µM and inactive = higher.
GI50 for assorted molecules
quantity_name: GI50

COc1cc(OC)cc(C(=O)Cc2c(C(=O)c3ccccc3)c3ccccc3n2C(=O)c2ccccc2)c1 ... 28.6 µM (inactive)
CC(=O)C1C(=O)NC(=O)C1=O (centres undefined) ... > 100 µM (inactive)
O=C1/C(=C/c2ccncc2)C(n2cccc2)c2c(Br)sc(Br)c21 (centres undefined) ... 10.4 µM (inactive)
CC(=O)NNc1nc(-c2ccc([N+](=O)[O-])cc2)c(C#N)c(=O)n1C ... 44.6 µM (inactive)
C[C@]12CC[C@@H]3c4ccc(O)cc4CC[C@H]3[C@@H]1C/C(=C\c1ccncc1)[C@@H]2O ... 5.18 µM (inactive)
CC(=O)OC1C(O)C(C)OC(OC2C(OC(=O)C3CCC4C(C3)OC3(CC(OC(=O)/C=C/c5ccccc5)C(C)CO3)C43CO3)OC(C)C(O)C2OC(C)=O)C1O (centres undefined) ... 0.0078 µM (active)
O=C(COc1ccc(Cl)cc1)N1N=C(c2ccc(Cl)cc2)CC1(O)c1ccccc1 (centres undefined) ... 21 µM (inactive)
O=C(O)C1=NN(c2ccc(S(=O)(=O)O)cc2)C2(C1)C(Cl)C(=O)N2c1nc2ccccc2s1 (centres undefined) ... 18.6 µM (inactive)
C/N=C1\S/C(=N\c2ccc(N(C)C)cc2)N1C ... 39.4 µM (inactive)
COc1ccc(/C=N/Nc2nc3ccccc3c(=O)n2-c2ccccc2)c(OCc2ccccc2)c1 ... > 100 µM (inactive)
[N-]=[N+]=CC(=O)OCC1NC(=O)C(COC(=O)C=[N+]=[N-])NC1=O (centres undefined) ... > 100 µM (inactive)
CCOC(=O)/C(C#N)=N\Nc1ccc(-n2c(C)nc3ccccc3c2=O)cc1 ... 78.3 µM (inactive)
CC(/C=N/N=C(N)N)=N\N=C(N)N ... 3.02 µM (inactive)
COc1nc(-c2c[nH]c3ccccc23)cnc1N ... 29 µM (inactive)
COc1cccc2nc3cc(C)c(C)cc3nc12 ... > 100 µM (inactive)
C/C(CC(O)(C(F)(F)Cl)C(F)(F)Cl)=N\Nc1ccccc1 ... 31.8 µM (inactive)
CC1Oc2c(c(=O)oc3ccccc23)[C@@]1(C)CC1C[C@H](C)C(=O)O1 (some centres undefined) ... 32.1 µM (inactive)
N#CC(C(=O)/C(=N/Nc1nc(S)nn1N)C(C#N)c1ccccc1)c1ccccc1 (centres undefined) ... > 100 µM (inactive)
COc1ccc(/C=C2\CCS(=O)(=O)c3ccccc3C2=O)cc1OC ... 48.8 µM (inactive)
CC(C)C(NCc1c2ccccc2[n+](C)c2ccccc12)C(=O)O (centres undefined) ... 2.34 µM (inactive)
CC1(CO)C(=O)OC12CCCCC2 (centres undefined) ... > 100 µM (inactive)
N#CCCC1(CCC#N)CCCCCCC(CCC#N)(CCC#N)C(O)C1O (centres undefined) ... 41.9 µM (inactive)
CC1=CC(=O)/C(=C/NC(=S)c2ccccc2)C(=O)O1 ... > 100 µM (inactive)
CC1=CCC2(C#N)CCC1C2=O (centres undefined) ... > 100 µM (inactive)

Reference source: ChEMBL document CHEMBL1201862
